- assay-comment: COS7 lysate on small-molecule microarray, probe aHis, 635 nm (AID 1123);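 note: z-score combines 667nm fluorescence intensity with signal-to-noise per printed compound spot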
- details: COS7 cell lysate, fluorescence, higher = more signal
property-measured: composite z-score
Numbers only.

Some compounds with known composite z-score results, for comparison:
Query :: What value of composite z-score has been recorded for this entry: Cc1ccc(N2C(=O)c3ccccc3[C@@H](C(=O)NCc3ccccc3)[C@@H]2c2ccc(CO)cc2)nc1
Result :: 3.91

Query :: Name the reported composite z-score value associated with the compound CCOC(=O)C[C@H]1[C@H](OC(=O)c2ccccc2-c2ccccc2)[C@@H](NC(=O)C2CCCCC2)c2cc(OCCCO)ccc2N1C(=O)c1ccccc1
Result :: 0.68

Query :: I am curious: what composite z-score value has been reported for COCCOC(=O)N1C(=O)[C@@]2(c3cc(C#CC4=CCCCC4)ccc31)[C@H](C(=O)NC[C@H](O)c1ccccc1)[C@H]1C(=O)O[C@H](c3ccccc3)[C@H](c3ccccc3)N1[C@@H]2c1ccc(OCCO)cc1 ?
Result :: 1.9

Query :: Given the entry O=C1OCCC=C[C@H]2OC34C=CCN(Cc5ccccc5)C(=O)[C@H]3N(CCO)C(=O)[C@@H]4C12 (stereo partly specified) , report its measured composite z-score.
Result :: -0.59

Query :: Can you look up the measured composite z-score of O=C1C2C=CC(C(O)c3ccccc3)N(n3cnnc3)C2C(=O)N1Cc1ccccc1 (stereo unspecified) for me?
Result :: 0.775

In the following, a different compound is considered.
Query :: Quick one: composite z-score of COCCOC(=O)N1C(=O)[C@@]2(c3cc(C#CCNC(N)=O)ccc31)[C@H](C(=O)N1CCCCCCC1)[C@H]1C(=O)O[C@H](c3ccccc3)[C@H](c3ccccc3)N1[C@@H]2c1ccccc1OCCO ?
Result :: 0.963

* * *

- target-or-test-system: Focal adhesion kinase 1 (Homo sapiens)
- assay-comment: small-molecule microarray binders of FAK, primary screen, biochemical, 635/667 nm fluorescence, BSA, DTT (AID 1130);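 note: composite of spot emission at 667 nm and signal to noise over triplicate slides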
- details: PTK2 binding, 635 nm fluorescence, higher = more signal
property-measured: composite z-score
Numbers only.

Example cases with answers are listed next.
Query :: Sample C[C@@H]1NC(=O)[C@H](Cc2ccccc2)NC(=O)[C@@]23C(=O)N[C@@H](Cc4ccccc4)C2[C@H](C)[C@@]2(C)O[C@H]2C3/C=C/C/C=C\CNC1=O (stereo partly drawn) — what was its composite z-score?
Result :: -0.524

Query :: Name the recorded composite z-score for C=CCC(OC(C)=O)[C@@H]1[C@@H](N(Cc2cccc3ccccc23)C(=O)Cc2ccc(F)cc2)c2cc(OCCCO)ccc2N1C(=O)Cc1ccc2ccccc2c1 (stereo partly drawn) .
Result :: 0.317

Query :: Recorded composite z-score for COCCOC(=O)N1C(=O)[C@@]2(c3cc(C#CCNC(N)=O)ccc31)[C@H](C(=O)N1CCCCCCC1)[C@H]1C(=O)O[C@H](c3ccccc3)[C@H](c3ccccc3)N1[C@@H]2c1ccccc1OCCO , please?
Result :: 0.784

Query :: Look at this compound and give its reported composite z-score. COc1ccc([Si](C)(C)[C@H]2[C@H](CCO)O[C@@]3(C(=O)N(Cc4ccc(N5CCCCC5=O)cc4)c4ccccc43)[C@@H]2C)cc1
Result :: 0.0098

Query :: Please report the recorded composite z-score for CCC#CCN(Cc1ccccc1Br)[C@H](/C=C/c1ccccc1)[C@@H](O)Cc1ccccc1 .
Result :: -0.0168

Go through the items and report each one's composite z-score.
1. Cc1ccc(S[C@]2(C(=O)NC3CC3)CC(=O)N(Cc3cc(C(F)(F)F)cc(C(F)(F)F)c3)[C@@H]2c2ccc(CO)cc2)cc1
2. COc1cc(CO)cc(I)c1O[C@H]1C=C(C(=O)NCCO)C[C@@H](NCCc2c[nH]c3ccccc23)[C@@H]1O
3. COC(=O)[C@@]1(Cc2ccc(OC)cc2)[C@H]2c3cc(C(=O)N(C)C)n(CCc4ccc(OC)c(Br)c4)c3C[C@H]2CN1C(=O)c1ccccc1
4. C=CCN1C(=O)[C@@]2(Cc3ccccc3)N=C(c3ccc(OCCCO)cc3)O[C@H]2c2ccccc21
5. C[C@H]1C2[C@H](Cc3ccccc3)NC(=O)[C@]23C(=O)N[C@H](Cc2ccccc2)C(=O)N[C@@H](Cc2ccccc2)C(=O)NC/C=C\C/C=C/C3[C@@H]2O[C@]12C (stereo partly drawn)
6. C=CCC(OC(C)=O)[C@@H]1[C@@H](N(Cc2cc3ccccc3o2)C(=O)Cc2ccc(F)cc2)c2cc(OCCCO)ccc2N1C(=O)c1ccc(-c2ccccc2)cc1 (stereo partly drawn)
7. COc1ccc([Si](C)(C)[C@@H]2[C@@H](CCO)O[C@]3(C(=O)N(Cc4ccc(NC(=O)[C@H](C)O)cc4)c4ccccc43)[C@H]2C)cc1
8. CC(C)CNC(=O)[C@@]1(C)c2ccccc2C(=O)N(Cc2ccc(OC(F)(F)F)cc2)[C@H]1c1ccc(CO)cc1

Result ::
[0.389, -0.0981, 2.29, 0.665, 0.838, -0.341, 0.293, -0.0752]

Go through the list and state composite z-score for each entry.
1. CO[C@@H]1COC(=O)[C@H](COCc2ccccc2)NC(=O)CC=C[C@@H](C)[C@H](OC)COC(=O)[C@H](COCc2ccccc2)NC(=O)CC=C[C@H]1C
2. NC(=O)NCC#Cc1ccc2c(c1)[C@]1(C(=O)N2)[C@H](C(=O)N2CCCCCCC2)[C@H]2C(=O)O[C@H](c3ccccc3)[C@H](c3ccccc3)N2[C@@H]1c1ccccc1OCCO
3. C[C@H]1NC(=O)[C@@H](C)NC(=O)[C@@]23C(=O)N[C@@H](Cc4ccccc4)C2[C@H](C)[C@@]2(C)O[C@H]2C3/C=C/C/C=C\CNC1=O (stereo partly drawn)

Result ::
1: -0.0624; 2: 2.88; 3: -0.801

Dear colleague, could you please provide composite z-score for the compounds listed below?
1. COC(=O)c1ccc(C#CC(NP(=O)(c2ccccc2)c2ccccc2)c2ccccc2)cc1 (stereo not drawn)
2. COc1ccc([Si](C)(C)[C@H]2[C@H](CC(=O)N3Cc4ccccc4C[C@H]3CO)O[C@@]3(C(=O)N(Cc4cccc(N5CCOC5=O)c4)c4ccccc43)[C@@H]2C)cc1

Result ::
0.671
0.432
